assay_overview: TOX21_p53_BLA_p3_viability: Viability Assessment in the Tox21 HCT-116 p53 Agonism Beta-lactamase Assay, Phase 3 (AID 2283593);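 note: cells exposed to compound for 16 h before reading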
Inconclusive results are not listed. Calls of active or inactive are those of the source. Rule for the calls: active = hit-call score of the fitted dose curve at least 0.9, where 1 is the maximum; inconclusive = response in the unintended direction; inactive = score below 0.9.
readout: outcome

Ask | Would you kindly share the measured outcome for CO[C@H]1C[C@H](O[C@@H]2/C(C)=C/C[C@@H]3C[C@@H](C[C@]4(CC[C@H](C)[C@@H](C5CCCCC5)O4)O3)OC(=O)[C@@H]3C=C(C)/C(=N/O)[C@H]4OC/C(=C\C=C\[C@@H]2C)[C@]43O)O[C@@H](C)[C@@H]1O ?
Reply | inactive

Ask | Recorded outcome of C#C[C@]1(O)CC[C@H]2[C@@H]3CCC4=C/C(=N/O)CC[C@@H]4[C@H]3CC[C@@]21CC , please.
Reply | inactive

Ask | Fill blank: measured outcome of the compound COc1cc2ncnc(Nc3ccc(F)c(Cl)c3)c2cc1OCCCN1CCOCC1 is ____.
Reply | inactive

----------
assay_overview: TOX21_p53_BLA_p3_viability: Viability Assessment in the Tox21 HCT-116 p53 Agonism Beta-lactamase Assay, Phase 3 (AID 2283593);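 note: cells exposed to compound for 16 h before reading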
Results filed as inconclusive are left out. Activity calls are given as the source filed them. Rule for the calls: active = hit-call score of the fitted dose curve at least 0.9, where 1 is the maximum; inconclusive = response in the unintended direction; inactive = score below 0.9.
readout: AC50

Example results:
Ask | Item under review: Cn1c(O)c(N=NC(N)=S)c2ccccc21 . Reported AC50?
Reply | inactive

Ask | Consider the compound O=C(NOC[C@H](O)CO)c1ccc(F)c(F)c1Nc1ccc(I)cc1F and give its measured AC50.
Reply | inactive

Ask | Value lookup for AC50; key = CN(C)C(=O)C(CCN1CCC(O)(c2ccc(Cl)cc2)CC1)(c1ccccc1)c1ccccc1
Reply | inactive

Ask | Entry under review: O=C(CO)[C@@H](O)[C@H](O)[C@H](O)CO . Reported AC50?
Reply | inactive

Ask | Requested field: AC50. Item: O=C1NC(=O)[C@@H]2CC=CC[C@H]12
Reply | inactive

Ask | Requested read-out: AC50. Entry: C[C@H](CS)C(=O)N1CCC[C@H]1C(=O)O
Reply | inactive

List reported AC50 for each of these compounds:
1. CN1C(=O)CC(C)(c2ccccc2)C1=O (centres undefined)
2. O=C(c1ccccc1)c1cc(Cl)ccc1O
3. Nc1cc(-c2ccncc2)c[nH]c1=O
4. CCCCCCCCCCCCCCCC[N+](C)(C)CCN(Cc1ccc(OC)cc1)c1ncccn1

Reply |
1: inactive; 2: inactive; 3: inactive; 4: inactive

Hey, quick one: what's AC50 for each of these?
1. C=C1/C(=C\C=C2/CCC[C@]3(C)[C@@H]([C@H](C)CCCC(C)(C)O)CC[C@@H]23)C[C@@H](O)C[C@@H]1O
2. O=C(O)Cc1nn(Cc2ccc(Br)cc2F)c(=O)c2ccccc12
3. CCOC(=O)COc1ccc2c(=O)cc(-c3ccccc3)oc2c1
4. C[Si](C)(C)O[Si](C)(C)O[Si](C)(C)C
5. CC(C)NCC(O)c1ccc2ccccc2c1 (centres undefined)
6. Cc1cc2c(cc1S(N)(=O)=O)S(=O)(=O)CCC2
7. CCOC(=O)[C@@H](N)CS

Reply |
1: 24.5 µM (active); 2: inactive; 3: inactive; 4: inactive; 5: inactive; 6: inactive; 7: inactive

----------
assay_overview: ATG_CRE_CIS: Attagene CIS-FACTORIAL HepG2 Assay for human cAMP Responsive Element (CRE) binding protein 3 (AID 2282926)
assay_setup: HepG2 CRE cis-reporter, Attagene multiplexed mRNA; actives raise or lower the signal
Activity calls are given as the source filed them. The calls were made as follows: active = hit-call score of the fitted dose curve at least 0.9, where 1 is the maximum; inactive = score below 0.9.
The categories you may choose from are t = active, f = inactive

Ask | // return assay outcome for c1ccc(CNc2ncnc3nc[nH]c23)cc1
Reply | f

Ask | Check the results log: what was the call for Nc1nnc(-c2ccc([N+](=O)[O-])o2)o1 ?
Reply | f

Ask | What is the recorded call for this compound in the test? Oc1ccc(Cl)cc1C1CCCC1
Reply | t

Ask | Field: outcome | Entry: CCC(C)=NO
Reply | f

Ask | What call does the record list for CC1=NN(c2cc(Cl)c(S(=O)(=O)O)cc2Cl)C(=O)C1N=Nc1ccc(S(=O)(=O)O)cc1 (centres undefined) ?
Reply | f

Ask | What classification did CC/C=C\CCCCCO end up with in this test?
Reply | f

New cases:
Ask | Outcome logged for CCCCCCCCCC/C=C/C1CC(=O)OC1=O (centres undefined) in this assay:
Reply | f

Ask | Dear all, I need the recorded test outcome for Nc1ccc(S(=O)(=O)Nc2cnc3ccccc3n2)cc1 , thank you.
Reply | f

Ask | Returns: the outcome recorded for CCc1cc(C(N)=S)ccn1 in this assay.
Reply | f

Ask | Each compound tested received a call. Report the one for O=[N+]([O-])c1ccccc1C(F)(F)F .
Reply | f

Ask | Check the results log: what was the call for CC/C=C\CC/C=C/C(OCC)OCC ?
Reply | f

----------
assay_overview: TOX21_p53_BLA_p2_viability: Viability Assessment in the Tox21 HCT-116 p53 Agonism Beta-lactamase Assay, Phase 2 (AID 2283591);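 note: compound exposure lasted 16 h at 37 °C; actives lower the ATP signal meaning cytotoxicity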
Results filed as inconclusive are left out. The source made the active and inactive calls. How the source made its calls: active means hit-call score of the fitted dose curve at least 0.9, where 1 is the maximum; inconclusive means response in the unintended direction; inactive means score below 0.9.
readout: outcome

Ask | Recorded outcome for CCN(CC)CCOCCOC(=O)C(CC)(CC)c1ccccc1 , please?
Reply | inactive

Ask | Any idea what outcome was measured for O=C(O)CN(CCN(CC(=O)O)CC(=O)O)CC(=O)O ?
Reply | inactive

Ask | Entry c1ccc2c(c1)Oc1ccccc1S2 : reported outcome = ?
Reply | inactive

Ask | Suppose we examine the compound COc1cc(-c2ccc(=O)[nH]n2)ccc1OC(F)F ; what outcome value has been reported?
Reply | inactive

Ask | Which outcome value belongs to COc1ccccc1Oc1c(NS(=O)(=O)c2ccc(C(C)(C)C)cc2)nc(-c2ncccn2)nc1OCCO ?
Reply | inactive

Give one value of outcome per listed compound.
1. CCC(=O)OCC(=O)[C@@]1(OC(=O)CC)[C@H](C)C[C@H]2[C@@H]3CCC4=CC(=O)C=C[C@]4(C)[C@@]3(F)[C@@H](O)C[C@@]21C
2. Cc1cccc(Nc2ncccc2C(=O)O)c1C
3. CC(C)CC(=O)O
4. CC(C(O)c1ccc(O)cc1)N1CCC(Cc2ccccc2)CC1 (stereo unspecified)
5. CC(=O)[C@@]1(O)CC[C@H]2[C@@H]3C[C@H](C)C4=CC(=O)CC[C@]4(C)[C@H]3CC[C@@]21C
6. C=CC[N+]1([C@H]2C[C@H]3[C@@H]4CC[C@H]5C[C@H](OC(C)=O)[C@@H](N6CCCCC6)C[C@]5(C)[C@H]4CC[C@]3(C)[C@H]2OC(=O)CC)CCCCC1

Reply |
1. inactive
2. inactive
3. inactive
4. inactive
5. inactive
6. inactive

----------
assay_overview: BSK_hDFCGF_SRB: Viability Assessment in the BioMAP Diversity Plus: hDFCGF Assay (AID 2283061);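 note: cells exposed to compound for 24 h before the read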
assay_setup: primary human foreskin fibroblasts
The source made the active and inactive calls. Rule for the calls: active = hit-call score of the fitted dose curve at least 0.9, where 1 is the maximum; inactive = score below 0.9.
A correct response names exactly one class from active, inactive

# example entries with known answers
Ask | What classification did CC[N+](CC)(CC(=O)Nc1c(C)cccc1C)Cc1ccccc1 (tested in a mixture with another compound) end up with in this test?
Reply | inactive

Ask | For Cc1cc(-n2nc3ccc(Cl)cc3n2)c(O)c(C(C)(C)C)c1 , which call appears in the assay record?
Reply | inactive

Continuing:
Ask | Please let me know the test result on file for CCCCC(CC)COC(=O)C=Cc1ccc(OC)cc1 (configuration not stated) .
Reply | inactive

Ask | Assay result, entry COc1ccccc1Oc1c(NS(=O)(=O)c2ccc(C(C)(C)C)cc2)nc(-c2ncccn2)nc1OCCO — outcome?
Reply | inactive

Ask | // outcome(item) with item = COC(=O)/C=C\C(=O)OC
Reply | inactive

Ask | Hello, I am checking results. What call was entered for CCCCCCCCCCCCCCCCCC[N+](C)(C)C ?
Reply | active

Ask | GET /call?item= Oc1cccc2ccccc12 returns the recorded outcome of this test.
Reply | inactive

Ask | Entry C1CN(CCOCCN2CCOCC2)CCO1 : call = ?
Reply | inactive

Ask | What call does the record list for O=C(C(=O)c1ccccc1)c1ccccc1 ?
Reply | inactive

Ask | Please let me know the test result on file for Cc1c(C(N)=O)cc([N+](=O)[O-])cc1[N+](=O)[O-] .
Reply | inactive

Ask | What did this assay record as the result for CN(C)CCC(c1ccc(Cl)cc1)c1ccccn1 (configuration not stated) ?
Reply | inactive

Ask | Which result was noted for this molecule in the test: OC(C(F)(F)F)(C(F)(F)F)C(O)(C(F)(F)F)C(F)(F)F
Reply | inactive

----------
tested_on: Cellular tumor antigen p53 (Homo sapiens) (UniProt P04637)
Sequence (P04637 whole entry, looked up): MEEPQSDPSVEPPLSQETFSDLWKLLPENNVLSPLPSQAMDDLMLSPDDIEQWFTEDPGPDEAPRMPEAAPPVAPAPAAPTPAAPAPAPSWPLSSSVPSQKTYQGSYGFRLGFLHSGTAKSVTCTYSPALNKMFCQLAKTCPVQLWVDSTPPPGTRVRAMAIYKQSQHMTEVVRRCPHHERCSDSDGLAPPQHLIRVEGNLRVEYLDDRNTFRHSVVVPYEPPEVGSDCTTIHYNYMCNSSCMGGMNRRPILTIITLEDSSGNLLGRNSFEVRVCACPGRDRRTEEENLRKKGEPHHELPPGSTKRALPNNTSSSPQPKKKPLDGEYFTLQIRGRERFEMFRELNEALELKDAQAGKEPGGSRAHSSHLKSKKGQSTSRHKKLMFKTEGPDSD
assay_overview: TOX21_p53_BLA_p4_ratio: Tox21 HCT-116 p53 Agonism Beta-lactamase Assay, Ratio, Phase 4 (AID 2283601)
Records with an inconclusive call do not appear. Activity calls are given as the source filed them. Rule for the calls: active = hit-call score of the fitted dose curve at least 0.9, where 1 is the maximum; inconclusive = response in the unintended direction; inactive = score below 0.9.
In this exercise, the only acceptable responses are active, inactive

Worked set:
Ask | Which outcome was assigned to CO[C@H]1/C=C/O[C@@]2(C)Oc3c(C)c(O)c4c(O)c(c(/C=N/N5CCN(C6CCCC6)CC5)c(O)c4c3C2=O)NC(=O)/C(C)=C\C=C\[C@H](C)[C@H](O)[C@@H](C)[C@@H](O)[C@@H](C)[C@H](OC(C)=O)[C@@H]1C in this test?
Reply | active

Ask | Answer briefly: the call reported for OC1OC[C@@H](O)[C@H](O)[C@@H]1O (some centres not stated) in this assay.
Reply | inactive

Ask | Hi, sorry to bother you, what did the test record for CCCCCCCCCCCCCCC(=O)O ?
Reply | inactive

Ask | What was the test verdict on COC1=C(OC)C(=O)C(C/C=C(\C)CC/C=C(\C)CC/C=C(\C)CC/C=C(\C)CC/C=C(\C)CC/C=C(\C)CC/C=C(\C)CC/C=C(\C)CC/C=C(\C)CCC=C(C)C)=C(C)C1=O ?
Reply | inactive

Ask | Hi team, can someone confirm the assay call for Cc1ccsc1/C=C/C1=NCCCN1C ?
Reply | inactive

Ask | Field: outcome | Entry: Cc1cc2c(cc1S(N)(=O)=O)S(=O)(=O)CCC2
Reply | inactive

More entries:
Ask | What is the recorded call for this molecule in the test? O=C1OC(O)C(C(Cl)Cl)=C1Cl (configuration not stated)
Reply | inactive

Ask | Please share the test call associated with CC(C)(C)C(=O)OCOC(=O)C1N2C(=O)CC2S(=O)(=O)C1(C)C (configuration not stated) .
Reply | inactive

Values compiled from PubChem BioAssay (EPA / NIEHS).
